// values below are reported self-cleavage kobs at 2500 uM GlcN6P
B1: glmS ribozyme (parent)
chain: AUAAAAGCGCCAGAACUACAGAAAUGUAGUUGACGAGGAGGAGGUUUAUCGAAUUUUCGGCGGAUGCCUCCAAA

Variants of: B1
ASSAY DETAILS: self-cleavage kobs at 2500 uM GlcN6P; higher = faster cleavage; RNA array
CONDITION LABEL: with glucosamine-6-phosphate
This sample holds only a part of the variants without activity.
Reply numerically in s⁻¹, unit not repeated.

Here is how some variants turned out for self-cleavage kobs at 2500 uM GlcN6P.
biopolymer_sequence="AUAAAAGCGCCAGAACUACAGAAAUGUAGAUGACGAGGAGGAGGUUUAUCGAAUUUUCGGCGGAUGCCUCGAAA [U30A C71G]" quantity_kind="self-cleavage kobs at 2500 uM GlcN6P" uom=s⁻¹ reported_value=0.000129
biopolymer_sequence="AUAAAAGCGCCAGAACUACAGAAAUGUAGUCCACGAGGAGGAGGUUUAUCGAAUUUUCGGCGGAUGCCUGCAAA [U31C G32C C70G]" quantity_kind="self-cleavage kobs at 2500 uM GlcN6P" uom=s⁻¹ reported_value=0.000104
biopolymer_sequence="AUAAAAGCGCCAGAAUUACAGAAAUGUACUUGACGAGGAGGAGGUUUAUCGAAUUUUCGGCGGAUGACUCCAAA [C16U G29C C67A]" quantity_kind="self-cleavage kobs at 2500 uM GlcN6P" uom=s⁻¹ reported_value=0.00106
biopolymer_sequence="AUAAAAGCGCCAGAACUACAGAAAUGUAGUUGACGAGGAGGAGGGUUAUCGAAUUUUCGGCGGAAGCCUCCAAA [U45G U65A]" quantity_kind="self-cleavage kobs at 2500 uM GlcN6P" uom=s⁻¹ reported_value=0.00264

# next variant below
Q. Give the measured self-cleavage kobs at 2500 uM GlcN6P for AUAAAAGCGCCAGAAUUACAGAAAUGUAGUUGACGAGGAGGAGGUUUAUCGACUUUUCGGCGGAUGCCUCCAAA [C16U A53C]
A. 0.00358
